target: KRas^G12V (Homo sapiens, UniProt P01116, G12V); construct: […]; biotin (biotinylated); test: KRas binding assay (TR-FRET displacement of Cy5 labelled tracer)
Sequence (P01116 1-169 isoform P01116-2 G12V): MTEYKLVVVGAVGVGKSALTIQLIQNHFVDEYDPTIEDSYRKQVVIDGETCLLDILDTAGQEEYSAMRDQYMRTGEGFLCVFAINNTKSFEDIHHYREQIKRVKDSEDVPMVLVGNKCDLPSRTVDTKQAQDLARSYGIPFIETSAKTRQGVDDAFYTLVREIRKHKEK
compounds and their reported pIC50
FYI, pIC50 means -log10 of a concentration in mol per litre.

Some solved cases for reference:
CCc1cccc2cccc(N3CCc4c(nc(OCC56CCCN5CCC6)nc4N4CCn5ncc(S(C)(=O)=O)c5C4)C3)c12 [Example 144]: 5.20
CCc1cccc2cccc(N3CCc4c(nc(OCC56CCCN5CCC6)nc4NC4CN(C(N)=O)C4)C3)c12 [Example 147]: 5.84
CCc1cccc2cccc(N3CCc4c(nc(OCC56CCCN5CCC6)nc4NC4CC5CC5C4)C3)c12 (stereo not drawn) [Example 170]: 5.23

Inquiry: Name the recorded pIC50 of the item CCc1cccc2cccc(N3CCc4c(nc(OCC56CCCN5CCC6)nc4N4CCC(O)CC(CO)C4)C3)c12 (single isomer, unassigned) [Example 174] in your answer.
Reply text: 7.42

###

molecular target: KRas^G12V (Homo sapiens, UniProt P01116, G12V); construct: […]; biotin (biotinylated); assay: KRas binding assay (TR-FRET displacement of Cy5 labelled tracer)
The molecules listed here are annotated with their log10(IC50).
Short version: log10 scale, IC50, nM.

Look over these answered cases.
CCc1c(F)ccc2cc(O)cc(N3CCc4c(nc(OC[C@@]56CCCN5C[C@H](F)C6)nc4N4CC5CCC(C4)O5)C3)c12: 1.04
CCc1cccc2cccc(N3CCc4c(nc(OCC56CCCN5CCC6)nc4N4CCCC(N5CC(C)CS5(=O)=O)C4)C3)c12 (centres unmarked): 2.63
CCc1cccc2cccc(N3CCc4c(nc(OCC56CCCN5CCC6)nc4N4CCCC(c5ccno5)C4)C3)c12 (centres unmarked): 2.98
CCc1cccc2cccc(N3CCc4c(nc(OCC56CCCN5CCC6)nc4N4CCCC(c5cn(C)nn5)C4)C3)c12 (centres unmarked): 2.98
CN(C)C(=O)c1cc2n(n1)CCCN(c1nc(OC[C@@H]3CCCN3C)nc3c1CCN(c1cccc4cccc(Cl)c14)C3)C2: 3.28

Inquiry: Look up and report measured log10(IC50) (KRas^G12V (Homo sapiens, UniProt P01116, G12V)) for the following molecule: CCc1cccc2cccc(N3CCc4c(nc(OCC56CCCN5CCC6)nc4NC4CCc5ncsc5C4)C3)c12 (centres unmarked)
Reply text: 3.85

Inquiry: Give log10(IC50); test system KRas^G12V (Homo sapiens, UniProt P01116, G12V); molecule CCc1cccc2cccc(N3CCc4c(nc(OCC56CCCN5CCC6)nc4N4CCCC(c5nc(C)c(C)[nH]5)C4)C3)c12 (centres unmarked)
Reply text: 3.62

Inquiry: Answer briefly: log10(IC50) recorded on KRas^G12V (Homo sapiens, UniProt P01116, G12V) for CCc1cccc2cccc(N3CCc4c(nc(OCC56CCCN5CCC6)nc4N4CCOCC(O)C4)C3)c12 (centres unmarked)
Reply text: 2.07

###

pIC50 by entry:
target: KRas^G13D (Homo sapiens, UniProt P01116, G13D); experiment: biochemical
Sequence (P01116 1-169 isoform P01116-2 G13D): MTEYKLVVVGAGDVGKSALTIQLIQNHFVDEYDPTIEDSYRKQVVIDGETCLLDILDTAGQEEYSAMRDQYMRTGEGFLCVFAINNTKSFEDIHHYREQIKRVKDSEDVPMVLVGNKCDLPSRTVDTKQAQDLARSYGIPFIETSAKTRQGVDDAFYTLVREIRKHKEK
Notebook: values listed as pIC50 are -log10 of the concentration (mol/L).

CCc1cccc2cccc(N3CCc4c(nc(OCC56CCCN5CCC6)nc4N4CCCC(c5ccn[nH]5)C4)C3)c12 (stereo not shown): 5.86
CCc1cccc2cccc(N3CCc4c(nc(OCC56CCCN5CCC6)nc4N4CCCC(CO)CC4)C3)c12 (stereo not shown): 6.33
CCc1cccc2cccc(N3CCc4c(nc(OCC56CCCN5CCC6)nc4N4CCCC(c5cn(C)nn5)C4)C3)c12 (stereo not shown): 5.80

Inquiry: Look up and report measured pIC50 for this entry: CCc1cccc2cccc(N3CCc4c(nc(OCC56CCCN5CCC6)nc4N4CCCC(c5nc(C)no5)C4)C3)c12 (stereo not shown)
Reply text: 5.47

###

target: KRas^G12D (Homo sapiens, UniProt P01116, G12D); construct: […]; biotin (biotinylated); purchased Accelegan Inc; assay: KRas binding assay (TR-FRET displacement of Cy5 labelled tracer)
Sequence (P01116 1-169 isoform P01116-2 G12D): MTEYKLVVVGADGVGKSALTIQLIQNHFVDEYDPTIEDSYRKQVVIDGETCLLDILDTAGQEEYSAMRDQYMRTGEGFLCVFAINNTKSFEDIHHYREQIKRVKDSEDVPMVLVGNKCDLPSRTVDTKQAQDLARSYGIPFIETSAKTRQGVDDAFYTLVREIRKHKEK
Our labelling divides records by IC50 into ranges: bottom range = under 30 nM, center range = from 30 nM up to 4000 nM, top range = 4000 nM and over

Consider the following illustrative entries.
CCc1c(F)ccc2cc(O)cc(N3CCc4c(nc(OC[C@@]56CCCN5C[C@H](F)C6)nc4N4CCC[C@]5(C4)NC(=O)NC5=O)C3)c12: bottom range
CCc1cccc2cccc(N3CCc4c(nc(OCC56CCCN5CCC6)nc4N4CCCC(c5ccn(C)n5)C4)C3)c12 (stereo not shown): top range
O=C1NC(=O)C2CN(c3nc(OC[C@@]45CCCN4C[C@H](F)C5)nc4c3CCN(c3cc(O)cc5ccc(F)c(Br)c35)C4)CC12 (stereo partly shown): bottom range
CCc1cccc2cccc(N3CCc4c(nc(OCC56CCCN5CCC6)nc4N4CCCN(C(=O)c5ccco5)CC4)C3)c12: top range
CCc1cccc2cccc(N3CCc4c(nc(OCC56CCCN5CCC6)nc4N4CC5CNC(=O)C5C4)C3)c12 (stereo not shown): center range
O=C1NCC12CCCN(c1nc(OC[C@@]34CCCN3C[C@H](F)C4)nc3c1CCN(c1cc(O)cc4ccc(F)c(Cl)c14)C3)C2 (stereo partly shown): bottom range

Inquiry: Would you mind sorting CCc1c(F)ccc2cc(O)cc(N3CCc4c(nc(OC[C@@]56CCCN5C[C@H](F)C6)nc4N4CCC(O)C(CO)CC4)C3)c12 (stereo partly shown) into the appropriate category?
Reply text: bottom range

Inquiry: Class (by measured IC50) for CCc1cccc2cccc(N3CCc4c(nc(OCC56CCCN5CCC6)nc4N4CCCC(O)C4)C3)c12 (stereo not shown)
Reply text: center range

Inquiry: Which IC50 category applies to O=C1NC(=O)C2CN(c3nc(OCC45CCCN4CCC5)nc4c3CCN(c3cccc5cccc(F)c35)C4)CC12 (stereo not shown) here?
Reply text: top range

###

In this section we review reported pIC50 values for a set of compounds.
molecular target: KRas^G12V (Homo sapiens, UniProt P01116, G12V); construct: […]; biotin (biotinylated); assay: KRas binding assay (TR-FRET displacement of Cy5 labelled tracer)
In plain terms, pIC50 is the concentration in mol/L turned into minus its base-10 logarithm.

CCc1cccc2cccc(N3CCc4c(nc(OCC56CCCN5CCC6)nc4N4CCCC(O)C4)C3)c12 (stereo not shown): 6.57
CCc1cccc2cccc(N3CCc4c(nc(OCC56CCCN5CCC6)nc4NCCc4ccno4)C3)c12: 5.14
CCc1cccc2cccc(N3CCc4c(nc(OCC56CCCN5CCC6)nc4N4CCCC5(CC(=O)N5)C4)C3)c12 (stereo not shown): 7.74

// next item, pIC50 requested
Inquiry: Fill in: pIC50 on KRas^G12V (Homo sapiens, UniProt P01116, G12V), entry CCc1cccc2cccc(N3CCc4c(nc(OCC56CCCN5CCC6)nc4N4CCCn5nc(N)cc5C4)C3)c12
Reply text: 7.09

###

molecular target: KRas^G12V (Homo sapiens, UniProt P01116, G12V); construct: […]; biotin (biotinylated); assay: KRas binding assay (TR-FRET displacement of Cy5 labelled tracer)
Quantity name: pIC50
Scale: pIC50 equals -log10([C]), with [C] in mol/L.

Here are 5 compounds together with their reported answers.
CCc1cccc2cccc(N3CCc4c(nc(OCC56CCCN5CCC6)nc4N4CCCC(c5nc(C)no5)C4)C3)c12 (stereo not drawn): 5.08
CCc1cccc2cccc(N3CCc4c(nc(OCC56CCCN5CCC6)nc4N4CCCc5ncccc5C4)C3)c12: 5.96
CCc1c(F)ccc2cc(O)cc(N3CCc4c(nc(OC[C@@]56CCCN5C[C@H](F)C6)nc4N4CCCC(n5cccn5)C4)C3)c12 (stereo partly drawn): 8.15
CCc1cccc2cccc(N3CCc4c(nc(OCC56CCCN5CCC6)nc4N4CCCC(c5ccn[nH]5)C4)C3)c12 (stereo not drawn): 5.74
CCc1cccc2cccc(N3CCc4c(nc(OCC56CCCN5CCC6)nc4N4CCCC(c5ccn(C)n5)C4)C3)c12 (stereo not drawn): 5.69

Inquiry: Provide measured pIC50 on KRas^G12V (Homo sapiens, UniProt P01116, G12V) for CCc1cccc2cccc(N3CCc4c(nc(OCC56CCCN5CCC6)nc4N4CCCC(O)CC4)C3)c12 (stereo not drawn) please.
Reply text: 7.17

Inquiry: Enter pIC50 (test system KRas^G12V (Homo sapiens, UniProt P01116, G12V)) for Oc1cc(N2CCc3c(nc(OC[C@@]45CCCN4C[C@H](F)C5)nc3N3CCOCC(n4cccn4)C3)C2)c2c(Br)c(F)ccc2c1 (stereo partly drawn)
Reply text: 8.52

###

molecular target: KRas^G12D (Homo sapiens, UniProt P01116, G12D); construct: […]; biotin (biotinylated); test: KRas binding assay (TR-FRET displacement of Cy5 labelled tracer)
Quantity name: pIC50
Convention used: pIC50 is expressed as -log10 of the molar concentration.

Previously resolved entries follow.
CCc1cccc2cccc(N3CCc4c(nc(OCC56CCCN5CCC6)nc4N4CCCC(C(C)O)C4)C3)c12 (stereo not shown) [Example 131]: 5.67
CCc1c(F)ccc2cc(O)cc(N3CCc4c(nc(OC[C@@]56CCCN5C[C@H](F)C6)nc4N4CC5CCC(C4)O5)C3)c12 [Example 176]: 7.11
CCc1cccc2cccc(N3CCc4c(nc(OCC56CCCN5CCC6)nc4N4CCCn5nc(N)cc5C4)C3)c12 [Example 10]: 7.17

Inquiry: Provide KRas^G12D (Homo sapiens, UniProt P01116, G12D) pIC50 reading for CCc1cccc2cccc(N3CCc4c(nc(OCC56CCCN5CCC6)nc4N4CCCC(c5n[nH]c(C)n5)C4)C3)c12 (stereo not shown) [Example 93] .
Reply text: 5.58

Inquiry: Give pIC50; test system KRas^G12D (Homo sapiens, UniProt P01116, G12D); compound CCc1cccc2cccc(N3CCc4c(nc(OCC56CCCN5CCC6)nc4N4CCCC5(CC(=O)N5)C4)C3)c12 (stereo not shown) [Example 16]
Reply text: 7.20
